Target: T1, human IL6R-Fc protein (human, biotin-labeled in the ELISAs (sites not given))
T1 construct: In house made; also called biotin-labeled human IL6R-Fc protein
T1 sequence (chain, as listed by the source limits assumed): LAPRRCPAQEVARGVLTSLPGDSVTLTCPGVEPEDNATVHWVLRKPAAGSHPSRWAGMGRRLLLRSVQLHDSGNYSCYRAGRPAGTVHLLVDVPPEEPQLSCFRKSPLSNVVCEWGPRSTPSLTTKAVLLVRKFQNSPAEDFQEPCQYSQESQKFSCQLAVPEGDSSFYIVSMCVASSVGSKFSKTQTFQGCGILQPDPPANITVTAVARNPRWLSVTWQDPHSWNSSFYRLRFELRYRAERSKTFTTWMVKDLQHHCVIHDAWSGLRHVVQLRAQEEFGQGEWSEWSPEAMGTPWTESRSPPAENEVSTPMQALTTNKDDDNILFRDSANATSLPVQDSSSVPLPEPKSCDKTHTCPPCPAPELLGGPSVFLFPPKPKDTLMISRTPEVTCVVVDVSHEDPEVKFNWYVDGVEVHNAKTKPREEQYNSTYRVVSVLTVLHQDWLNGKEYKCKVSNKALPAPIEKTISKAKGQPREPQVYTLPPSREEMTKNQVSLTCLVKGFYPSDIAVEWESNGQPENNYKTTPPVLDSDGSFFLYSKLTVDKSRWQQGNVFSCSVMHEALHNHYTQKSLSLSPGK
Test: capture ELISA: antibody captured on anti-IgG F(ab')2 coated plate, then biotin-labeled human IL6R-Fc, streptavidin-HRP
Method: For the capture ELISA, 96-well micro plates were coated with 2 μg/ml AffiniPure Goat Anti-Mouse IgG, F(ab′)₂ fragment specific (Jackson ImmunoResearch Laboratories, Inc., Cat #115-005-072) in PBS, 100 μl/well, and incubated for 2 hours at 37° C. […] The reaction was stopped 3-10 minutes later at room temperature with 50 μl/well 1M H₂SO₄, and the absorbance of each well was read on a microplate reader using dual wavelength mode at 450 nm for TMB and 630 nm as the reference wavelength. […]
endpoint: pEC50
FYI, pEC50 means -log10 of a concentration in mol per litre.

mouse anti-IL6R monoclonal antibody 1G1 (antibody, V domains shown, Mouse hybridoma mAb) VH: QVQLQQPGAELVKPGASVKLSCKASGYTFTSYWMHWVKVRPGQGLEWIGEINPTNGRTNYNEDFKSKATLTVESSSSTAYMQFSSLTSEDSAVYYCARLNTHYVFDYWGQGTTLTVSS VL: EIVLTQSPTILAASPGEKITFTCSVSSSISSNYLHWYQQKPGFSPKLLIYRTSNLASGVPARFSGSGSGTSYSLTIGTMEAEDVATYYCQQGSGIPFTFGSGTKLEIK | 10.07
mouse anti-IL6R monoclonal antibody 1A3 (antibody, V domains shown, Mouse hybridoma mAb purified on Protein A) VH: QVQLQQPGAELVKPGASVKLSCKASGYTFTSYWMHWVKQRPAQGLEWIGEINPSNGRTNFNEKFKTKATLTVDKSSNTAYMQLSSLTSEDSAVYSCLRLNTHYVFDYWGQGTTLTVSS VL: EIVLTQSPTTMAASPGEKITITCSASSSISSNYLHWYQQKPGFSPKLLISRTSNLASGVPTRFSGSGSGTSYSLTIGTMEAGDVATYYCQQGSGIPFTFGSGTKLEIK | 10.14
mouse anti-IL6R monoclonal antibody 1F7 (antibody, V domains shown, Mouse hybridoma mAb) VH: QVQLQQPGAELVKPGASVKLSCKASDYTFTSYWMHWVKQRPGQGLEWIGEINPSNGRTNYNEKFKNKATLTVDKSSSTAYVQLYSLTSEDSAVYYCARLSIHYVFDYWGQGTTLTVSS VL: ELVLTQSPTTMAASPGEKITFTCSASSSISSNYLHWYQQKPGFSPKLLISGTSNLASGVPPRFSGSGSGTSYSLTIVTMEAEDVATYYCQQGSGIPFTFGSGTKLEIK | 10.23
mouse anti-IL6R monoclonal antibody 1D4 (antibody, V domains shown, Mouse hybridoma mAb) VH: QVQLQQPGAELVKPGASVKLSCKASGYTFTSYWMHWVKVRPGQGLEWIGEINPTNGRTNYNEDFKSKATLTVNSSSSTAYMQLSSLTSEDSAVYYCARLNTHYVFDYWGQGTTLTVSS VL: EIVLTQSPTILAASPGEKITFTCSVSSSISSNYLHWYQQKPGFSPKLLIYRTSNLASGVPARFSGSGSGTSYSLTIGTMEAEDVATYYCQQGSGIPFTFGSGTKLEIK | 10.25
mouse anti-IL6R monoclonal antibody 3C2 (antibody, V domains shown, Mouse hybridoma mAb) VH: QVQLQQPGTELVKPGASVKLSCKASGYTFTTYWIHWVKQRPGQGLEWIGEINPSNGRTNYNEHFKSKATLTVDKSSSTASMQLSSLTSADSAVYYCARLNTHYVFDSWGQGTTLTVSS VL: EIVLTQSPTTMAASPGEKITITCSASSSISSNYLHWYQQKPGFSPKLLIYRTSNLASGVPTHFSGSGSGTSYSLTIGTMEAEDVATYYCQQGSGIPFTFGSGTKLEIK | 10.27
mouse anti-IL6R monoclonal antibody 1B5 (antibody, V domains shown, Mouse hybridoma mAb) VH: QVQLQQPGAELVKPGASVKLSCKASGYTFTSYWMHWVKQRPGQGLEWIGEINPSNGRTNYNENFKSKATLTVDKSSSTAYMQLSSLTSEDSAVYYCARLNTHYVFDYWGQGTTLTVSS VL: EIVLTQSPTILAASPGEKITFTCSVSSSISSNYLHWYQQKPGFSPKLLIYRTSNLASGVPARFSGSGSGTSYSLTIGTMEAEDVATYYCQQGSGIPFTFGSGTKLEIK | 10.43
mouse anti-IL6R monoclonal antibody 1H7 (antibody, V domains shown, Mouse hybridoma mAb) VH: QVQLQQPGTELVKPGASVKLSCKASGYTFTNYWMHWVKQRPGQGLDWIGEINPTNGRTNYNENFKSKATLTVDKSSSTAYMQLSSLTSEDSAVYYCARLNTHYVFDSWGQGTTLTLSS VL: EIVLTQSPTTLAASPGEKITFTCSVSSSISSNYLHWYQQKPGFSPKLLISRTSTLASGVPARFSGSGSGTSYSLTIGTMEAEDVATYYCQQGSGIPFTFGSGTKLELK | 10.36

What measured pEC50 goes with mouse anti-IL6R monoclonal antibody 1H9 (antibody, V domains shown, Mouse hybridoma mAb) VH: QVQLQQPGAELVKPGASVKLSCKASGYTFTSYWMHWVKLRPGQGLEWIGEINPTNGRTNYYEKFKNRATLTADKSSSTAYMQLSSLTFEDSAVYFCAKFHYSRWYFDVWGTGTTVTVSS VL: DIVMTQSQKFMSTSVGDRVSITCKASQNVGTAVVWYQQKPGQSPKLLINPASNRYTGVPDRFTGSGSGTDFTLTISNMQSEDLADYFCQQYSSYPLTFGAGTKLELK ?
10.17
